# Tested on: HepG2 human cancer-cell line
# assay.notes: MTT antiproliferative assay, HepG2
# Assay type: cell-based
# experimental.context: MTT, 48 h of exposure, read-out: IC50 (μM) ± SD HepG2
Reported IC50 by item:
attribute.measured: IC50 (µM)

CCn1c(SCCN2CCCCC2)nc2cc3ccccc3cc2c1=O	27.7
Cn1c(SCc2ccc(C#N)cc2)nc2cc3ccccc3cc2c1=O	36
Cn1c(=S)[nH]c2cc3ccccc3cc2c1=O	40.4
Cn1c(SCc2ccccc2)nc2cc3ccccc3cc2c1=O	34.8
CCSc1nc2cc3ccccc3cc2c(=O)n1CC	31.7

* * *

# test.system: VEGFR-2 (KDR) (Homo sapiens)
# Construct: purchased Cat. #40325
# Sequence (P35968 20-1356): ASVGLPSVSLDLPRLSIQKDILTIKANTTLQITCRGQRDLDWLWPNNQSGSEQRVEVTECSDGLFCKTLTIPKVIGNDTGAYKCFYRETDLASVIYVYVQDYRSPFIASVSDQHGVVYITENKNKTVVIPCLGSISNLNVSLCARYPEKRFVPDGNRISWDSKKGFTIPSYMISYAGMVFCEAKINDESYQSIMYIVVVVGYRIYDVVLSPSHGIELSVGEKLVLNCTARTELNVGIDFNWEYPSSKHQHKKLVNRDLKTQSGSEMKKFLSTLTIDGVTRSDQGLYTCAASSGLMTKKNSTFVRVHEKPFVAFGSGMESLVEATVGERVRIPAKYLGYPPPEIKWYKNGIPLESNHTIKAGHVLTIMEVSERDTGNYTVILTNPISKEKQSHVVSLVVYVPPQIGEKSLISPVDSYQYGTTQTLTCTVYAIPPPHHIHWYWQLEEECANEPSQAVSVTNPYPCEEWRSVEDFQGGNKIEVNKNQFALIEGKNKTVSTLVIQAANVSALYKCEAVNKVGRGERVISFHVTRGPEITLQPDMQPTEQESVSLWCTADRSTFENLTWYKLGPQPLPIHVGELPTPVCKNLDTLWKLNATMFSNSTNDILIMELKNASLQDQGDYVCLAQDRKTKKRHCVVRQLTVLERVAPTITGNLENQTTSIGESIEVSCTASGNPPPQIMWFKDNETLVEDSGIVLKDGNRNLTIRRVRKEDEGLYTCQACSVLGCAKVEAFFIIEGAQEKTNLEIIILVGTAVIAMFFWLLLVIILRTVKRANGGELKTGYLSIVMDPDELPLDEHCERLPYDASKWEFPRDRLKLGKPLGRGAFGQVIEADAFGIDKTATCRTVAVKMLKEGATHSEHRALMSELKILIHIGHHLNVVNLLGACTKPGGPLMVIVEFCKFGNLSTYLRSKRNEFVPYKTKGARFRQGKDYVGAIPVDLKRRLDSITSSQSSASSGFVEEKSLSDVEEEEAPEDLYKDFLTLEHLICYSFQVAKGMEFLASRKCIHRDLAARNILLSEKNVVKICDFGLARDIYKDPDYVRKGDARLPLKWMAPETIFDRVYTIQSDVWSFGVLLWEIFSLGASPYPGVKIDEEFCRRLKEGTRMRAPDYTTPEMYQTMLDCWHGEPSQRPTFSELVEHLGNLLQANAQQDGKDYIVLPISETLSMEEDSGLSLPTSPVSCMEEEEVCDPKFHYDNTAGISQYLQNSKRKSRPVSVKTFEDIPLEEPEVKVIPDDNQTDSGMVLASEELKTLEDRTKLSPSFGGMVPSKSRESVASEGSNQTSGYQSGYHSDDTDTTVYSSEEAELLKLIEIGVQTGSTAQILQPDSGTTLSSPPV
# assay.notes: In vitro inhibition of VEGFR-2 (KDR) kinase assay kit
# Assay type: biochemical
# experimental.context: VEGFR-2 IC50 relative to sorafenib
attribute.measured: Fold Relative to Sorafenib (fold)

CCn1c(SCCN2CCCCC2)nc2cc3ccccc3cc2c1=O	2.0
CCn1c(SCc2ccccc2)nc2cc3ccccc3cc2c1=O	4.5
CCn1c(SCc2cccc(OC)c2)nc2cc3ccccc3cc2c1=O	1.5
CCn1c(SCCCN2C(=O)c3ccccc3C2=O)nc2cc3ccccc3cc2c1=O	1.4
